Target: Clostridioides difficile
Assay: Competitive inhibition of taurocholate-induced spore germination in Clostridium difficile UK1 at 0.2 mM by Michaelis-Menten kinetic analysis
Assay type: functional
QUANTITY_NAME: pKi
Numbers only, as −log10 of the molar value.

Q: State its pKi: COC(=O)CC[C@@H](C)[C@H]1CC[C@H]2[C@@H]3[C@H](O)C[C@@H]4C[C@H](O)CC[C@]4(C)[C@H]3CC[C@]12C
Ans: 4.36

###

Tested on: Clostridioides difficile
Assay: Antibacterial activity against Clostridium difficile NAP1 assessed as concentration required for complete inhibition of TCA-induced spore germination measured after 20 mins under anaerobic condition
Type: functional
Details: NAP1, 20 min, read-out: MEC
Provide the reported minimal effective concentration of each item.

# count of solved cases: 6
COC(=O)CC[C@@H](C)[C@H]1CC[C@H]2[C@@H]3[C@H](OC)C[C@@H]4C[C@H](OC)CC[C@]4(C)[C@H]3CC[C@]12C = 500 µM
C[C@H](CCC(C)(C)O)[C@H]1CC[C@H]2[C@H]3[C@H](CC[C@]12C)[C@@]1(C)CC[C@@H](O)C[C@H]1C[C@@]3(C)O = > 1000 µM
C[C@H](CCC(=O)N1CCCC1)[C@H]1CC[C@H]2[C@@H]3[C@@H](O)C[C@@H]4C[C@H](O)CC[C@]4(C)[C@H]3CC[C@]12C = 100 µM
CO[C@@H]1CC[C@@]2(C)[C@@H](C1)C[C@@H](OC)[C@@H]1[C@@H]2CC[C@]2(C)[C@@H]([C@H](C)CCC(=O)N3CCCC3)CC[C@@H]12 = 500 µM
C[C@H](CCC(=O)NC(C)(C)CO)[C@H]1CC[C@H]2[C@@H]3[C@H](O)C[C@@H]4C[C@H](O)CC[C@]4(C)[C@H]3CC[C@]12C = 500 µM
COC(=O)CC[C@@H](C)[C@H]1CC[C@H]2[C@@H]3[C@@H](OC)C[C@@H]4C[C@H](OC)CC[C@]4(C)[C@H]3CC[C@]12C = 500 µM

Hello, I would appreciate it if you could give minimal effective concentration for each entry below.
1. CO[C@H]1C[C@@H]2C[C@H](O)CC[C@]2(C)[C@H]2CC[C@]3(C)[C@@H]([C@H](C)CCC(=O)O)CC[C@H]3[C@H]12
2. CCCCNC(=O)CC[C@@H](C)[C@H]1CC[C@H]2[C@@H]3[C@H](O)C[C@@H]4C[C@H](O)CC[C@]4(C)[C@H]3CC[C@]12C
3. C[C@H](CCC(=O)Nc1cccc(S(=O)(=O)O)c1)[C@H]1CC[C@H]2[C@@H]3[C@H](O)C[C@@H]4C[C@H](O)CC[C@]4(C)[C@H]3C[C@H](O)[C@]12C
4. CO[C@@H]1CC[C@@]2(C)[C@@H](C1)C[C@H](O)[C@@H]1[C@@H]2CC[C@]2(C)[C@@H]([C@H](C)CCC(=O)O)CC[C@@H]12
5. CC(=O)O[C@@H]1CC[C@@]2(C)[C@@H](C1)C[C@H](OC(C)=O)[C@@H]1[C@@H]2CC[C@]2(C)[C@@H]([C@H](C)CCC(N)=O)CC[C@@H]12

Ans:
["> 500 µM", "500 µM", "> 1000 µM", "> 500 µM", "50 µM"]

###

Tested on: Clostridioides difficile
Assay: Antibacterial activity against Clostridium difficile NAP1 assessed as concentration required for complete inhibition of TCA-induced spore germination measured after 20 mins under anaerobic condition
Assay type: functional
Settings: NAP1, 20 min, read-out: MEC
Provide the reported minimal effective concentration of each item.
Numbers only, in µM.

# count of solved cases: 3
C[C@H](CCC(=O)O)[C@H]1CC[C@H]2[C@@H]3[C@@H](OS(=O)(=O)O)C[C@@H]4C[C@H](O)CC[C@]4(C)[C@H]3CC[C@]12C = 3000
COC(=O)CC[C@@H](C)[C@H]1CC[C@H]2[C@@H]3[C@H](O)C[C@@H]4C[C@H](O)CC[C@]4(C)[C@H]3CC[C@]12C = 500
C[C@H](CCC(=O)N1CCCC1)[C@H]1CC[C@H]2[C@@H]3[C@H](O)C[C@@H]4C[C@H](O)CC[C@]4(C)[C@H]3CC[C@]12C = 50

Q: State its minimal effective concentration: C[C@H](CCC(=O)O)[C@H]1CC[C@H]2[C@@H]3C[C@H](O)[C@@H]4C[C@H](O)CC[C@]4(C)[C@H]3CC[C@]12C [HYODEOXYCHOLIC_ACID]
Ans: 500

###

Provide the reported minimal effective concentration of each item.
Tested on: Clostridioides difficile
Assay: Antibacterial activity against Clostridium difficile NAP1 assessed as concentration required for complete inhibition of TCA-induced spore germination measured after 20 mins under anaerobic condition
Assay type: functional
Conditions: NAP1, 20 min, read-out: MEC
Answers are plain numbers, in µM.

# count of solved cases: 3
CO[C@@H]1CC[C@@]2(C)[C@@H](C1)C[C@H](OC)[C@@H]1[C@@H]2CC[C@]2(C)[C@@H]([C@H](C)CCC(=O)N3CCCC3)CC[C@@H]12 = 1000
CCCCNC(=O)CC[C@@H](C)[C@H]1CC[C@H]2[C@@H]3[C@@H](O)C[C@@H]4C[C@H](O)CC[C@]4(C)[C@H]3CC[C@]12C = 500
COC(=O)CC[C@@H](C)[C@H]1CC[C@H]2[C@@H]3[C@@H](O)C[C@@H]4C[C@H](O)CC[C@]4(C)[C@H]3CC[C@]12C = 50

Now examine the next entry.
Q: State its minimal effective concentration: COC(=O)CC[C@@H](C)[C@H]1CC[C@H]2[C@@H]3[C@@H](OC)C[C@@H]4C[C@H](O)CC[C@]4(C)[C@H]3CC[C@]12C
Ans: 500

###

Target: Clostridioides difficile
Experiment: Inhibition of TCA-induced spore germination in Clostridium difficile NAP1 at 0.2 mM using varying levels of TCA measured after 20 mins under anaerobic condition
Type: functional
QUANTITY_NAME: Ki (µM)
One number for each entry, in µM.

CO[C@@H]1CC[C@@]2(C)[C@@H](C1)C[C@H](OS(=O)(=O)[O-])[C@@H]1[C@@H]2CC[C@]2(C)[C@@H]([C@H](C)CCC(=O)N3CCCC3)CC[C@@H]12.[Na+] = 20

Q: State its Ki: COC(=O)CC[C@@H](C)[C@H]1CC[C@H]2[C@@H]3[C@H](O)C[C@@H]4C[C@H](O)CC[C@]4(C)[C@H]3CC[C@]12C
Ans: 118

###

Conditions: human, caco-2, 10 µM
QUANTITY_NAME: Papp (×10⁻⁶ cm/s)
Answers are plain numbers, in ×10⁻⁶ cm/s.

Q: State its Papp: CO[C@@H]1CC[C@@]2(C)[C@@H](C1)C[C@H](OS(=O)(=O)[O-])[C@@H]1[C@@H]2CC[C@]2(C)[C@@H]([C@H](C)CCC(=O)N3CCCC3)CC[C@@H]12.[Na+]
Ans: 0.1

###

Provide the reported minimal effective concentration of each item.
Tested on: Clostridioides difficile
Assay: Antibacterial activity against Clostridium difficile NAP1 assessed as concentration required for complete inhibition of TCA-induced spore germination measured after 20 mins under anaerobic condition
Assay type: functional
Settings: NAP1, 20 min, read-out: MEC
Give bare numbers, in µM.

# count of solved cases: 3
CC(=O)O[C@@H]1CC[C@@]2(C)[C@@H](C1)C[C@@H](OC(C)=O)[C@@H]1[C@@H]2CC[C@]2(C)[C@@H]([C@H](C)CCC(N)=O)CC[C@@H]12 = 50
COC(=O)CC[C@@H](C)[C@H]1CC[C@H]2[C@@H]3[C@H](OC)C[C@@H]4C[C@H](O)CC[C@]4(C)[C@H]3CC[C@]12C = 500
C[C@H](CCC(=O)O)[C@H]1CC[C@H]2[C@@H]3[C@H](O)C[C@@H]4C[C@H](O)CC[C@]4(C)[C@H]3CC[C@]12C = 500

Now examine the next entry.
Q: State its minimal effective concentration: COC(=O)CC[C@@H](C)[C@H]1CC[C@H]2[C@@H]3C[C@H](O)[C@@H]4C[C@H](O)CC[C@]4(C)[C@H]3CC[C@]12C
Ans: 500

###

Assay: in vitro
Details: human, Caco-2
QUANTITY_NAME: Papp A→B at 10 µM (nm/s)
Answers are plain numbers, in nm/s.

Q: State its Papp A→B at 10 µM: CO[C@@H]1CC[C@@]2(C)[C@@H](C1)C[C@@H](OS(=O)(=O)[O-])[C@@H]1[C@@H]2CC[C@]2(C)[C@@H]([C@H](C)CCC(=O)c3nnn[n-]3)CC[C@@H]12.[Na+].[Na+]
Ans: 4

###

Tested on: Clostridioides difficile
Experiment: Antibacterial activity against Clostridium difficile NAP1 assessed as concentration required for complete inhibition of TCA-induced spore germination measured after 20 mins under anaerobic condition
Assay type: functional
Details: NAP1, 20 min, read-out: MEC
QUANTITY_NAME: minimal effective concentration (µM)
Numbers only, in µM.

COC(=O)CC[C@@H](C)[C@H]1CC[C@H]2[C@@H]3[C@H](O)C[C@@H]4C[C@H](OC)CC[C@]4(C)[C@H]3CC[C@]12C = 500

Hello, I would appreciate it if you could give minimal effective concentration for each entry below.
1. COC(=O)CC[C@@H](C)[C@H]1CC[C@H]2[C@H]3[C@H](CC[C@]12C)[C@@]1(C)CC[C@@H](O)C[C@H]1C[C@@]3(C)O
2. CO[C@@H]1CC[C@@]2(C)[C@@H](C1)C[C@@H](OS(=O)(=O)[O-])[C@@H]1[C@@H]2CC[C@]2(C)[C@@H]([C@H](C)CCC(=O)c3nnn[n-]3)CC[C@@H]12.[Na+].[Na+]

Ans:
[50, 25]

Hello, I would appreciate it if you could give minimal effective concentration for each entry below.
1. COC(=O)CC[C@@H](C)[C@H]1CC[C@H]2[C@@H]3[C@@H](O)C[C@@H]4C[C@H](OC)CC[C@]4(C)[C@H]3CC[C@]12C
2. CO[C@@H]1CC[C@@]2(C)[C@@H](C1)C[C@H](OS(=O)(=O)[O-])[C@@H]1[C@@H]2CC[C@]2(C)[C@@H]([C@H](C)CCC(=O)N3CCCC3)CC[C@@H]12.[Na+]

Ans:
[500, 50]
